Known z-score of a selection of molecules
Assay: cell viability in Huh7 cells, primary screen, cytotoxicity control for HCV replication inhibitor project, CellTiter-Glo luminescence, basal, 48 h (AID 1143);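 also: Huh7 hepatoma cells carrying a hepatitis C replication reporter with no stimulus; test concentration not given here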
Conditions: Huh7 HCV replicon, higher = more signal, called active from +8 up or from −8 down
Please reply with the number alone, leaving off any unit.

Reference set, count: 6
MOLECULE	z-score
COC(=O)CC=C[C@H](C)[C@H](CO)NS(=O)(=O)c1ccc(C)cc1	-1.27
C=CCOC(=O)[C@H]1[C@@H]2C(=O)O[C@@H](c3ccccc3)[C@@H](c3ccccc3)N2[C@@H](c2ccc(OCCOC(=O)[C@H]3C[C@H]4C(=O)N5CCC[C@H]5C(=O)N4[C@H]3c3cccc(OCCO)c3)cc2)[C@]12C(=O)Nc1ccc(I)cc12	0.156
COC(=O)c1c(CC[C@@H](CO)NC(=O)N[C@H](Cc2ccccc2)Cn2cc(-c3ccccc3N)nn2)oc(C(C)=O)c1C(=O)OC	-0.145
O=C1CCCC2OC12C(O)CCc1ccccc1 (stereo unspecified)	0.564
COC(=O)C1=C(C)[C@@H](O)[C@@H](C)[C@H](c2c(OC)c(OC)c(C)c(OC)c2OC)O1	-0.0219
Cc1ccc(S(=O)(=O)N[C@@H]2COC(=O)[C@H](C)COC(=O)CC=C[C@H]2C)cc1	0.405

The recorded z-score for entry CC(CCC(=O)OC[C@H]1O[C@H](C#Cc2ccccc2)C=C[C@@H]1Oc1ccc(C)cc1)=NO[C@@H](C)c1cn([C@H](CO)Cc2ccccc2)nn1 equals -2.82

The recorded z-score for entry COC(=O)[C@@]1(Cc2ccc(OC)cc2)[C@H]2c3cc(C(=O)N4CCCC4)n(Cc4cc(F)c(F)c(F)c4)c3C[C@H]2CN1C(=O)c1ccccc1 equals -3.23

The recorded z-score for entry CN(C)C(=O)[C@@]1(Cc2ccccc2)N=C(c2ccc(OCCCO)cc2)O[C@H]1c1ccccc1CN=[N+]=[N-] equals -2.26

The recorded z-score for entry CCOC(=O)C1=CCC(c2cc3ccccc3[nH]2)NC1 (stereo unspecified) equals -2.83

The recorded z-score for entry COC(=O)[C@@H]1CC[C@H](C)[C@@H](c2ccc(C)cc2)N1C(=O)c1ccc(C=NOC[C@@H](O)COCc2ccco2)cc1 equals -1.83

The recorded z-score for entry CCOC(=O)CCN1C(=O)[C@H]2[C@H]3[C@H](O)[C@H](O)CC(=NOCc4ccccc4)[C@@H]3CC[C@H]2C1=O equals -1.25

###

Test: HepG2 cell viability effects, profiling panel, calcein-AM fluorescence, 48 h, basal (AID 1164); also: test concentration not given here
Conditions: higher = more signal
MEASURED ATTRIBUTE: z-score
Please reply with the number alone, leaving off any unit.

Reference set, count: 3
COMPOUND	MEASUREMENT
CCCCC(=C=CC[C@H](O)c1ccccc1OCCO)C[C@H](O)COCc1ccccc1	0.514
C=CCOC(=O)[C@H]1[C@@H]2C(=O)O[C@@H](c3ccccc3)[C@@H](c3ccccc3)N2[C@@H](c2ccc(OCCOC(=O)[C@H]3C[C@H]4C(=O)N5CCC[C@H]5C(=O)N4[C@H]3c3cccc(OCCO)c3)cc2)[C@]12C(=O)Nc1ccc(I)cc12	0.144
CO[C@@H]1COC(=O)CC=C[C@@H](C)COC(=O)[C@H](COCc2ccccc2)NC(=O)CC=C[C@H]1C	0.351

The recorded z-score for entry CCc1cc2c(nc1CC)CCN(CCC(C)=NOC(C)CN1CCCc3nc(C)c(C)cc31)C2 (configuration not stated) equals 0.595

The recorded z-score for entry O=C1C[C@@H](O)[C@@H](O)[C@@H]2[C@@H]3C(=O)N(c4ccc(F)cc4F)C(=O)[C@@H]3CC[C@@H]12 equals 0.644

The recorded z-score for entry CO[C@H]1COC(=O)[C@H](C)NC(=O)[C@@H](C)COC(=O)CC=C[C@@H]1C equals -0.368

The recorded z-score for entry CC(C)CON=C1[C@H]2CCn3c(=O)n(-c4ccccc4)c(=O)n3[C@H]2[C@H](O)[C@@H]2O[C@H]12 equals 0.332

Attribution: PubChem BioAssay
